# tested.system: Carbonic anhydrase 1 (Homo sapiens, UniProt P00915)
# Sequence (P00915 whole entry): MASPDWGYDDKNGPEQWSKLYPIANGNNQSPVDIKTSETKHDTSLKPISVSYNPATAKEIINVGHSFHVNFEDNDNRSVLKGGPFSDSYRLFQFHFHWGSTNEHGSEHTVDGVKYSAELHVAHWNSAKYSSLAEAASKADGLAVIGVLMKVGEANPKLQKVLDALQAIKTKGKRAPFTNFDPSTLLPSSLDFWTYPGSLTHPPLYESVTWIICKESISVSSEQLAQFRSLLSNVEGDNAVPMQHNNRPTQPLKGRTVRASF
outcome.measure: pKi
The read-out pKi is expressed as -log10 of concentration in moles per litre.

Past entries and their recorded results:
* NS(=O)(=O)c1ccc(N/C(S)=N/[C@@H](Cc2ccccc2)C(=O)O)cc1 | 7.52
* CNC(=O)COC(=O)[C@H](CC(C)C)/N=C(\S)Nc1ccc(S(N)(=O)=O)cc1 | 7.64
* CNC(=O)COC(=O)[C@H](CCSC)NC(=S)Nc1ccc(S(N)(=O)=O)cc1 | 7.51

Task: What value of pKi on Carbonic anhydrase 1 (Homo sapiens, UniProt P00915) does CNC(=O)COC(=O)[C@H](CC(N)=O)/N=C(\S)Nc1ccc(S(N)(=O)=O)cc1 have?
Result: 7.54

Task: Lab note: need pKi with Carbonic anhydrase 1 (Homo sapiens, UniProt P00915) for entry CNC(=O)COC(=O)[C@@H](/N=C(\S)Nc1ccc(S(N)(=O)=O)cc1)C(C)C , please look it up.
Result: 7.51

* * *

Heads up, these compounds all have Ki values measured for Carbonic anhydrase 2 (Homo sapiens, UniProt P00918).
Give just the number in nM; leave the unit off.

* CNC(=O)COC(=O)[C@H](Cc1ccccc1)NC(=S)Nc1ccc(S(N)(=O)=O)cc1 | 8

# input for lookup
Task: Short answer please: Ki, Carbonic anhydrase 2 (Homo sapiens, UniProt P00918), entry CNC(=O)COC(=O)[C@@H]1CCCN1/C(S)=N\c1ccc(S(N)(=O)=O)cc1
Result: 46

* * *

# tested.system: Carbonic anhydrase 1 (Homo sapiens, UniProt P00915)
outcome.measure: Ki (nM)
Record the value in nM, omitting the unit from your answer.

Task: What value of measured Ki is listed for CNC(=O)COC(=O)[C@H](CCC(N)=O)/N=C(\S)Nc1ccc(S(N)(=O)=O)cc1 ?
Result: 53

Task: So what does the record say about Ki for CNC(=O)COC(=O)[C@H](Cc1c[nH]c2ccccc12)NC(=S)Nc1ccc(S(N)(=O)=O)cc1 ?
Result: 64

Task: Given the entry NS(=O)(=O)c1ccc(NC(=S)N[C@@H](Cc2c[nH]c3ccccc23)C(=O)O)cc1 , report its measured Ki.
Result: 47

Task: Reported Ki, compound CC[C@H](C)[C@H](NC(=S)Nc1ccc(S(N)(=O)=O)cc1)C(=O)O : ____
Result: 22

Task: Fill blank: measured Ki of the compound CC(C)C[C@H](NC(=S)Nc1ccc(S(N)(=O)=O)cc1)C(=O)O is ____.
Result: 21

Task: # Ki lookup, item NS(=O)(=O)c1ccc(NC(=S)N2CCC[C@H]2C(=O)O)cc1
Result: 110

Task: Can you share its Ki? I mean this compound: CNC(=O)COC(=O)[C@@H]1CCCN1/C(S)=N\c1ccc(S(N)(=O)=O)cc1
Result: 197

Task: # query: Ki of entry CNC(=O)COc1ccc(COC(=O)[C@H](C)NC(=S)Nc2ccc(S(N)(=O)=O)cc2)cc1
Result: 58

Task: Find the recorded Ki belonging to CC[C@H](C)[C@H](/N=C(\S)Nc1ccc(S(N)(=O)=O)cc1)C(=O)OCC(=O)NC and report it.
Result: 25

Task: Recorded Ki of NC(=O)C[C@H](/N=C(\S)Nc1ccc(S(N)(=O)=O)cc1)C(=O)O , please.
Result: 27

* * *

# tested.system: Carbonic anhydrase 2 (Homo sapiens, UniProt P00918)
outcome.measure: pKi
# log scale: pKi equals minus log10 of the concentration in mol/L

Some compounds with recorded pKi:
- CNC(=O)COC(=O)[C@H](CCSC)NC(=S)Nc1ccc(S(N)(=O)=O)cc1: 8.30
- CNC(=O)COc1ccc(COC(=O)[C@H](C)NC(=S)Nc2ccc(S(N)(=O)=O)cc2)cc1: 7.80

As a next step, examine the compound that follows.
Task: Please state recorded pKi (tested on Carbonic anhydrase 2 (Homo sapiens, UniProt P00918)) of CNC(=O)COC(=O)[C@H](CC(C)C)/N=C(\S)Nc1ccc(S(N)(=O)=O)cc1
Result: 8.15

The measurements presented in this section are drawn from ChEMBL document CHEMBL1137219.
